Target: Aspartate--tRNA(Asp/Asn) ligase (Mycobacterium tuberculosis (strain ATCC 25618 / H37Rv))
Sequence (whole entry): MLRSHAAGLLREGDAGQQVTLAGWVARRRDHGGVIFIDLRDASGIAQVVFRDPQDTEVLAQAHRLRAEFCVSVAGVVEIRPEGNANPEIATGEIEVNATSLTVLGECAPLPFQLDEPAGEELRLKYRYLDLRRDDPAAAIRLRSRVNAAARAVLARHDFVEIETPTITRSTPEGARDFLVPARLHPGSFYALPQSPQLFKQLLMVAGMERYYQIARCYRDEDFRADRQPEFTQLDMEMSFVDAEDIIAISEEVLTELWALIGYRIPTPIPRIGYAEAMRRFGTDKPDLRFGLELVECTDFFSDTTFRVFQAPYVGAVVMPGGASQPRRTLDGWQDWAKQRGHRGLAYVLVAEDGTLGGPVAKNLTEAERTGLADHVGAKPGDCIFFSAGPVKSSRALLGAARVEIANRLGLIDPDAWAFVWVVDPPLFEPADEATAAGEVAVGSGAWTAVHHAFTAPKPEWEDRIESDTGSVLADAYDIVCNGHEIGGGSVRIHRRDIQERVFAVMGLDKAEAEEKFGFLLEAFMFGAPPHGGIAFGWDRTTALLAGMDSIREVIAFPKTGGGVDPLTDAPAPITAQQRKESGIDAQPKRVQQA
Assay: Assay for Asp RNA synthetase-1 from Mycobacterium tuberculosis
Type: functional
Parameters: scale not given: in the data most compounds retested in dose-response had high values
Details: 30 µM
Measurement Kind: Percent Effect (%)
Answers are plain numbers, in %.

Below, each entry is followed by its recorded Percent Effect result.
[
  {
    "Molecule": "O=C(CCc1cccs1)N1CCCCC1Cn1cccn1 (stereo unspecified)",
    "Unit String": "%",
    "Percent Effect": -2.77
  },
  {
    "Molecule": "Cc1ccc(C#N)c(N2CCC(c3nccn3CCN(C)C)CC2)n1",
    "Unit String": "%",
    "Percent Effect": -1.39
  },
  {
    "Molecule": "FC(F)(F)c1nc(NC2CCCC2)c2ccccc2n1",
    "Unit String": "%",
    "Percent Effect": 0.562
  },
  {
    "Molecule": "Cc1cn[nH]c1C1CCCCN1C(=O)CCN1CCCCCC1 (stereo unspecified)",
    "Unit String": "%",
    "Percent Effect": 8.57
  },
  {
    "Molecule": "O=C(NCc1cnc2n1CCN(CC1CC1)CC2)C1CCC1",
    "Unit String": "%",
    "Percent Effect": -5.77
  }
]

Quick one: Percent Effect of CC(C)Cc1noc(CN2CCC(NC(=O)c3cccs3)CC2)n1 ? 1.37
